Values compiled from patent US20250270173A1.

Below: a set of entries, each annotated with reported 5-HT1A % Act @ Max Conc..
Molecular target: 5-HT1A receptor (Homo sapiens (Human), UniProt P08908)
Experiment: FLIPR Ca2+ flux functional assay at 5-HT1A (CHO cells)
Conditions: Ca2+ flux, CHO cells, at max concentration
Just the number please, in %, no unit attached.

Some compounds with recorded 5-HT1A % Act @ Max Conc.:
[
  {
    "compound": "CCCCCCc1cc(OC)c(CCN)cc1OC [Compound 44, reference compound]",
    "target.system": "5-HT1A receptor (Homo sapiens (Human), UniProt P08908)",
    "readout.label": "5-HT1A % Act @ Max Conc.",
    "measurement.unit": "%",
    "measured": 183.21
  },
  {
    "compound": "COc1cc(CC(C)N)c(OC)cc1I (centres unmarked) [DOI, reference compound]",
    "target.system": "5-HT1A receptor (Homo sapiens (Human), UniProt P08908)",
    "readout.label": "5-HT1A % Act @ Max Conc.",
    "measurement.unit": "%",
    "measured": "−2.47"
  },
  {
    "compound": "CCCCCc1cc(OC)c(CC(N)CC)cc1OC (centres unmarked)",
    "target.system": "5-HT1A receptor (Homo sapiens (Human), UniProt P08908)",
    "readout.label": "5-HT1A % Act @ Max Conc.",
    "measurement.unit": "%",
    "measured": 33.1
  },
  {
    "compound": "COc1cc(CCN)cc(OC)c1OC [Mescaline, reference compound]",
    "target.system": "5-HT1A receptor (Homo sapiens (Human), UniProt P08908)",
    "readout.label": "5-HT1A % Act @ Max Conc.",
    "measurement.unit": "%",
    "measured": "−5.03"
  }
]

Q: # get_value(readout='5-HT1A % Act @ Max Conc.', item= CCCCCc1cc(OC)c(CC(C)N)cc1OC (centres unmarked) [Compound 41, reference compound] )
Result: 15.0
